These data points were gathered from PubChem BioAssay AID1963428.

- System: 171881-019-R-J1-PDC complex spheroid growth, % test/control
- Assay explanation: Anticancer human tumor 171881-019-R-J1-PDC patient-derived invasive breast carcinoma cell line growth inhibition [Asc]
- Experimental setup: second compound 1 µM; first compound 0.316 µM; active compounds read low
Readout: viability, T/C (%)
Numbers only, in %.

Example entries and their recorded answers appear below.
>>> number("CNC(C)C(=O)NC1CN(S(=O)(=O)c2cccc(S(=O)(=O)N3CCC4CCC(C(=O)NC(c5ccccc5)c5ccccc5)N4C(=O)C(NC(=O)C(C)NC)C3)c2)CCC2CCC(C(=O)NC(c3ccccc3)c3ccccc3)N2C1=O (stereo not drawn) + Cc1c(S(C)(=O)=O)c(-c2cc(F)cc(N3CCN(c4ccc(NS(=O)(=O)c5ccc(NC(CCN6CCC(C(=O)OCCCP(=O)(O)O)CC6)CSc6ccccc6)c(S(=O)(=O)C(F)(F)F)c5)cc4)CC3)c2)c(-c2ccc(Cl)cc2)n1C(C)C")
104
>>> number("CCN1CCN(Cc2ccc(Nc3ncc(F)c(-c4cc(F)c5nc(C)n(C(C)C)c5c4)n3)nc2)CC1 + CNC(C)C(=O)NC1CN(S(=O)(=O)c2cccc(S(=O)(=O)N3CCC4CCC(C(=O)NC(c5ccccc5)c5ccccc5)N4C(=O)C(NC(=O)C(C)NC)C3)c2)CCC2CCC(C(=O)NC(c3ccccc3)c3ccccc3)N2C1=O")
131

Proceeding to the next compound to report its viability, T/C.
Quick check: viability, T/C of C#Cc1c(F)ccc2cc(O)cc(-c3ncc4c(N5CC6CCC(C5)N6)nc(OCC56CCCN5CC(F)C6)nc4c3F)c12 (stereo not drawn) + CNC(C)C(=O)NC1CN(S(=O)(=O)c2cccc(S(=O)(=O)N3CCC4CCC(C(=O)NC(c5ccccc5)c5ccccc5)N4C(=O)C(NC(=O)C(C)NC)C3)c2)CCC2CCC(C(=O)NC(c3ccccc3)c3ccccc3)N2C1=O ?
138

---

Give measured viability, T/C for each item. Keep answers brief.
- Tested on: 171881-019-R-J1-PDC complex spheroid growth, % test/control
- Assay explanation: Anticancer human tumor 171881-019-R-J1-PDC cell line growth inhibition [Asc];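 note: spheroids exposed to compounds for 7 days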
- Experimental setup: second compound 0.0316 µM; first compound 0.00316 µM; active compounds read low

Example entries and their recorded answers appear below.
>>> result("O=C(c1ccc(F)c(F)c1Nc1ccc(I)cc1F)N1CC(O)([C@@H]2CCCCN2)C1 + CNC(C)C(=O)NC1CN(S(=O)(=O)c2cccc(S(=O)(=O)N3CCC4CCC(C(=O)NC(c5ccccc5)c5ccccc5)N4C(=O)C(NC(=O)C(C)NC)C3)c2)CCC2CCC(C(=O)NC(c3ccccc3)c3ccccc3)N2C1=O")
"93.8%"
>>> result("CCN1CCN(Cc2ccc(Nc3ncc(F)c(-c4cc(F)c5nc(C)n(C(C)C)c5c4)n3)nc2)CC1 + CNC(C)C(=O)NC1CN(S(=O)(=O)c2cccc(S(=O)(=O)N3CCC4CCC(C(=O)NC(c5ccccc5)c5ccccc5)N4C(=O)C(NC(=O)C(C)NC)C3)c2)CCC2CCC(C(=O)NC(c3ccccc3)c3ccccc3)N2C1=O")
"89.7%"

Proceeding to the next compound to report its viability, T/C.
Quick check: viability, T/C of Cn1ncnc1[C@H]1c2n[nH]c(=O)c3cc(F)cc(c23)N[C@@H]1c1ccc(F)cc1 + CNC(C)C(=O)NC1CN(S(=O)(=O)c2cccc(S(=O)(=O)N3CCC4CCC(C(=O)NC(c5ccccc5)c5ccccc5)N4C(=O)C(NC(=O)C(C)NC)C3)c2)CCC2CCC(C(=O)NC(c3ccccc3)c3ccccc3)N2C1=O ?
94.8%

---

- Tested on: 171881-019-R-J1-PDC complex spheroid growth, % test/control
- Assay explanation: Anticancer human tumor 171881-019-R-J1-PDC cell line growth inhibition [Asc]; active = viability on the fitted dose curve at most 10% of control; inactive = the rest;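 note: spheroids exposed to compounds for 7 days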
- Experimental setup: second compound 0.03 µM; first compound 0.316 µM
Give your call using only these classes: active, inactive

Please review the following examples before continuing.
>>> class_name("C=C(F)C(=O)N1CCN(c2nc(OCC3CCCN3C)nc3c2CCN(c2cccc4cccc(Cl)c24)C3)CC1CC#N (stereo not drawn) + CCN1C(C(=O)NC23CCC(C(=O)O)(CC2)CC3)C(c2cccc(Cl)c2F)C2(C(=O)Nc3cc(Cl)ccc32)C12CCCCC2")
"inactive"
>>> class_name("C#Cc1c(F)ccc2cc(O)cc(-c3ncc4c(N5CC6CCC(C5)N6)nc(OCC56CCCN5CC(F)C6)nc4c3F)c12 (stereo not drawn) + CCN1C(C(=O)NC23CCC(C(=O)O)(CC2)CC3)C(c2cccc(Cl)c2F)C2(C(=O)Nc3cc(Cl)ccc32)C12CCCCC2")
"inactive"
>>> class_name("COc1c(OCCCN2CCOCC2)ccc2c3n(c(=NC(=O)c4cnc(N)nc4)nc12)CCN3 + CCN1C(C(=O)NC23CCC(C(=O)O)(CC2)CC3)C(c2cccc(Cl)c2F)C2(C(=O)Nc3cc(Cl)ccc32)C12CCCCC2")
"active"
>>> class_name("O=C(c1cc(Cc2n[nH]c(=O)c3ccccc23)ccc1F)N1CCN(C(=O)C2CC2)CC1 + CCN1C(C(=O)NC23CCC(C(=O)O)(CC2)CC3)C(c2cccc(Cl)c2F)C2(C(=O)Nc3cc(Cl)ccc32)C12CCCCC2")
"inactive"
>>> class_name("CNC(C)C(=O)NC1CN(S(=O)(=O)c2cccc(S(=O)(=O)N3CCC4CCC(C(=O)NC(c5ccccc5)c5ccccc5)N4C(=O)C(NC(=O)C(C)NC)C3)c2)CCC2CCC(C(=O)NC(c3ccccc3)c3ccccc3)N2C1=O (stereo not drawn) + CCN1C(C(=O)NC23CCC(C(=O)O)(CC2)CC3)C(c2cccc(Cl)c2F)C2(C(=O)Nc3cc(Cl)ccc32)C12CCCCC2")
"inactive"

What was the test verdict on C=CC(=O)N1CCN(c2nc(=O)n(-c3c(C)ccnc3C(C)C)c3nc(-c4c(O)cccc4F)c(F)cc23)C(C)C1 (stereo not drawn) + CCN1C(C(=O)NC23CCC(C(=O)O)(CC2)CC3)C(c2cccc(Cl)c2F)C2(C(=O)Nc3cc(Cl)ccc32)C12CCCCC2 ?
inactive

Consider next the molecule CCN1CCN(Cc2ccc(Nc3ncc(F)c(-c4cc(F)c5nc(C)n(C(C)C)c5c4)n3)nc2)CC1 + CCN1C(C(=O)NC23CCC(C(=O)O)(CC2)CC3)C(c2cccc(Cl)c2F)C2(C(=O)Nc3cc(Cl)ccc32)C12CCCCC2 in the same way.
inactive

Consider next the molecule O=C(c1ccc(F)c(F)c1Nc1ccc(I)cc1F)N1CC(O)([C@@H]2CCCCN2)C1 + CCN1C(C(=O)NC23CCC(C(=O)O)(CC2)CC3)C(c2cccc(Cl)c2F)C2(C(=O)Nc3cc(Cl)ccc32)C12CCCCC2 in the same way.
inactive

---

Give measured viability, T/C for each item. Keep answers brief.
- Tested on: 171881-019-R-J1-PDC complex spheroid growth, % test/control
- Assay explanation: Anticancer human tumor 171881-019-R-J1-PDC cell line growth inhibition [Asc];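 note: spheroids exposed to compounds for 7 days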
- Experimental setup: second compound 0.316 µM; first compound 10 µM; active compounds read low
Answers are plain numbers, in %.

>>> number("C=CC(=O)N1CCN(c2nc(=O)n(-c3c(C)ccnc3C(C)C)c3nc(-c4c(O)cccc4F)c(F)cc23)C(C)C1 (configuration not stated) + CNC(C)C(=O)NC1CN(S(=O)(=O)c2cccc(S(=O)(=O)N3CCC4CCC(C(=O)NC(c5ccccc5)c5ccccc5)N4C(=O)C(NC(=O)C(C)NC)C3)c2)CCC2CCC(C(=O)NC(c3ccccc3)c3ccccc3)N2C1=O")
86.8

Proceeding to the next compound to report its viability, T/C.
Short answer please: viability, T/C, 171881-019-R-J1-PDC complex spheroid growth, % test/control, entry C=C(F)C(=O)N1CCN(c2nc(OCC3CCCN3C)nc3c2CCN(c2cccc4cccc(Cl)c24)C3)CC1CC#N (configuration not stated) + Cc1c(S(C)(=O)=O)c(-c2cc(F)cc(N3CCN(c4ccc(NS(=O)(=O)c5ccc(NC(CCN6CCC(C(=O)OCCCP(=O)(O)O)CC6)CSc6ccccc6)c(S(=O)(=O)C(F)(F)F)c5)cc4)CC3)c2)c(-c2ccc(Cl)cc2)n1C(C)C
0.3

---

Give measured viability, T/C for each item. Keep answers brief.
- System: 171881-019-R-J1-PDC complex spheroid growth, % test/control
- Assay explanation: Anticancer human tumor 171881-019-R-J1-PDC cell line growth inhibition [Asc];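 note: spheroids exposed to compounds for 7 days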
- Experimental setup: second compound 0.316 µM; first compound 10 µM; active compounds read low
Answers are plain numbers, in %.

Example entries and their recorded answers appear below.
>>> number("O=C(c1cc(Cc2n[nH]c(=O)c3ccccc23)ccc1F)N1CCN(C(=O)C2CC2)CC1 + CNC(C)C(=O)NC1CN(S(=O)(=O)c2cccc(S(=O)(=O)N3CCC4CCC(C(=O)NC(c5ccccc5)c5ccccc5)N4C(=O)C(NC(=O)C(C)NC)C3)c2)CCC2CCC(C(=O)NC(c3ccccc3)c3ccccc3)N2C1=O")
122
>>> number("C=C(F)C(=O)N1CCN(c2nc(OCC3CCCN3C)nc3c2CCN(c2cccc4cccc(Cl)c24)C3)CC1CC#N (stereo unspecified) + CNC(C)C(=O)NC1CN(S(=O)(=O)c2cccc(S(=O)(=O)N3CCC4CCC(C(=O)NC(c5ccccc5)c5ccccc5)N4C(=O)C(NC(=O)C(C)NC)C3)c2)CCC2CCC(C(=O)NC(c3ccccc3)c3ccccc3)N2C1=O")
2.51
>>> number("C#Cc1c(F)ccc2cc(O)cc(-c3ncc4c(N5CC6CCC(C5)N6)nc(OCC56CCCN5CC(F)C6)nc4c3F)c12 (stereo unspecified) + Cc1c(S(C)(=O)=O)c(-c2cc(F)cc(N3CCN(c4ccc(NS(=O)(=O)c5ccc(NC(CCN6CCC(C(=O)OCCCP(=O)(O)O)CC6)CSc6ccccc6)c(S(=O)(=O)C(F)(F)F)c5)cc4)CC3)c2)c(-c2ccc(Cl)cc2)n1C(C)C")
86
>>> number("O=C(c1cc(Cc2n[nH]c(=O)c3ccccc23)ccc1F)N1CCN(C(=O)C2CC2)CC1 + Cc1c(S(C)(=O)=O)c(-c2cc(F)cc(N3CCN(c4ccc(NS(=O)(=O)c5ccc(NC(CCN6CCC(C(=O)OCCCP(=O)(O)O)CC6)CSc6ccccc6)c(S(=O)(=O)C(F)(F)F)c5)cc4)CC3)c2)c(-c2ccc(Cl)cc2)n1C(C)C")
134
>>> number("C=CC(=O)N1CCN(c2nc(=O)n(-c3c(C)ccnc3C(C)C)c3nc(-c4c(O)cccc4F)c(F)cc23)C(C)C1 (stereo unspecified) + Cc1c(S(C)(=O)=O)c(-c2cc(F)cc(N3CCN(c4ccc(NS(=O)(=O)c5ccc(NC(CCN6CCC(C(=O)OCCCP(=O)(O)O)CC6)CSc6ccccc6)c(S(=O)(=O)C(F)(F)F)c5)cc4)CC3)c2)c(-c2ccc(Cl)cc2)n1C(C)C")
87.7

Proceeding to the next compound to report its viability, T/C.
Quick check: viability, T/C of C#Cc1c(F)ccc2cc(O)cc(-c3ncc4c(N5CC6CCC(C5)N6)nc(OCC56CCCN5CC(F)C6)nc4c3F)c12 (stereo unspecified) + CNC(C)C(=O)NC1CN(S(=O)(=O)c2cccc(S(=O)(=O)N3CCC4CCC(C(=O)NC(c5ccccc5)c5ccccc5)N4C(=O)C(NC(=O)C(C)NC)C3)c2)CCC2CCC(C(=O)NC(c3ccccc3)c3ccccc3)N2C1=O ?
230
